Items are presented alongside their recorded log P.
- test_method_notes: Octanol-water distribution coefficient (log P), lipophily
- cond: octanol water, pH 7.4, 21° C.

Recorded log P, per entry:
NCC(=O)CCC(=O)OC1CCCCC1 :: 1.494
CCCCCCOC(=O)CCC(=O)CN :: 1.839
CCOC(=O)CCC(=O)CN :: 0.8411

Please find the next compound below.
Ask | Let me know recorded log P for "CCCCCCCCOC(=O)CCC(=O)CN" , thanks.
Reply | 2.6199

Source: patent US20080227757A1
